# measured target: KRas G12D/Q61H double mutant (Homo sapiens (Human), UniProt P01116, G12D/Q61H)
# Sequence (P01116-2 other isoform, or with tags, fused parts or gaps G12D/Q61H): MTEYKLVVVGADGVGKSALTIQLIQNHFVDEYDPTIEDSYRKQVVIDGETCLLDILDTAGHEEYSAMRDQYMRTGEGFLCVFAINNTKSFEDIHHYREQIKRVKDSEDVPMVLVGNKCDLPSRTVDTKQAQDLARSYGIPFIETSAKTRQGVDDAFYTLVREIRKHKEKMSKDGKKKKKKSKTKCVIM
# test protocol: Ras GTP binding domain inhibition assay (labeled GTP)
# condition description: 20 μM compound; read-out: % Inhibition at 20 μM KRas G12D Q61H
Can you tell me inhibition at 20 µM for the items I'm about to list?

What the record says about O=C(c1csc2c(O)nc(-c3ccccn3)nc12)N1CCN(c2ccc(F)cc2F)CC1 [drawing 2760] : inhibition at 20 µM is 51 to 75%

What the record says about O=C(NCCc1ccc(O)nc1)c1csc2nc(-c3ccccn3)nc(N3CCOCC3)c12 [drawing 2809] : inhibition at 20 µM is 1 to 25%

What the record says about Nc1nc(O)c2scc(-c3ccccc3)c2n1 [drawing 2692] : inhibition at 20 µM is 1 to 25%

What the record says about O=C(c1csc2c(O)nc(-c3ccccn3)nc12)N1CCNC(c2ccccc2Cl)C1 (stereo not drawn) [drawing 2806] : inhibition at 20 µM is 25 to 50%

What the record says about `COc1cc(CC(=O)Nc2nnc(-c3ccccn3)[nH]2)cc(OC)c1OC` : inhibition at 20 µM is 25 to 50%

What the record says about COCC1CCN(C(=O)c2csc3c(O)nc(N)nc23)CC1 [drawing 2659] : inhibition at 20 µM is 1 to 25%

What the record says about O=C(c1csc2c(O)nc(-c3ccccn3)nc12)N1CCC(N2CCOCC2)CC1 [drawing 2678] : inhibition at 20 µM is 25 to 50%

What the record says about `O=c1[nH]c(-c2ncccn2)nc2ccc(-c3cccc(C(F)(F)F)c3)cc12` : inhibition at 20 µM is 25 to 50%

What the record says about c1ccc(-c2nc(N3CCOCC3)c3ccsc3n2)nc1 [drawing 2702] : inhibition at 20 µM is 51 to 75%

---

# measured target: KRas G12C/Q61H double mutant (Homo sapiens (Human), UniProt P01116, G12C/Q61H)
# Sequence (P01116-2 other isoform, or with tags, fused parts or gaps G12C/Q61H): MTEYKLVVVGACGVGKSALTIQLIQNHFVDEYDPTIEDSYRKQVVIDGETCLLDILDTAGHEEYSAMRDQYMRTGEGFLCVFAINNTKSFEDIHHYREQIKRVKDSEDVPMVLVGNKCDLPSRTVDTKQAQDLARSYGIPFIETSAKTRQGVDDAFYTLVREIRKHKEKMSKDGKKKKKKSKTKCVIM
# test protocol: Ras GTP binding domain inhibition assay (labeled GTP)
# condition description: 20 μM compound; read-out: % Inhibition at 20 μM KRas G12C Q61H
assay endpoint: inhibition at 20 µM

What the record says about Oc1nc(-c2ccccn2)nc2c(-c3ccc(F)cc3F)csc12 [drawing 2871] : inhibition at 20 µM is 51 to 75%

What the record says about COc1cccc(C2CN(C(=O)c3csc4c(O)nc(-c5ccccn5)nc34)CCN2)c1 (stereo not drawn) [drawing 2773] : inhibition at 20 µM is 51 to 75%

What the record says about Oc1nc(-c2ccccn2)nc2c(-c3ccc(OC4CCOCC4)cc3)csc12 [drawing 2867] : inhibition at 20 µM is 25 to 50%

What the record says about COc1ccnc(-c2nc(O)c3c(C#N)csc3n2)c1 [drawing 2782] : inhibition at 20 µM is 25 to 50%

What the record says about Oc1nc(-c2ccccn2)nc2c(-c3ccnn3-c3ccccn3)csc12 [drawing 2904] : inhibition at 20 µM is 25 to 50%

What the record says about O=C(c1csc2c(O)nc(-c3ccccn3)nc12)N1CCNC(c2ccc(F)cc2)C1 (stereo not drawn) [drawing 2807] : inhibition at 20 µM is 76 to 100%

What the record says about Nc1nc(-c2ccccn2)nc2scc(Br)c12 [drawing 2894] : inhibition at 20 µM is 25 to 50%

What the record says about CN(C)Cc1ccc(-c2csc3c(O)nc(-c4ccccn4)nc23)cc1F [drawing 2845] : inhibition at 20 µM is 76 to 100%

What the record says about Oc1nc(-c2ccccn2)nc2scc(Br)c12 [drawing 2703] : inhibition at 20 µM is 51 to 75%

What the record says about Oc1nc(-c2ccccn2)nc2c(-c3ccc(OC4CCCC4)cc3)csc12 [drawing 2863] : inhibition at 20 µM is 25 to 50%

What the record says about Cc1ccccc1N1CCN(C(=O)c2csc3c(O)nc(-c4ccccn4)nc23)CC1 [drawing 2723] : inhibition at 20 µM is 51 to 75%

What the record says about O=C(c1csc2c(O)nc(-c3ccccn3)nc12)N1CCOC(c2ccccc2Cl)C1 (stereo not drawn) [drawing 2769] : inhibition at 20 µM is 76 to 100%

What the record says about O=C(NCCc1cncnc1)c1csc2nc(-c3ccccn3)nc(N3CCOCC3)c12 [drawing 2784] : inhibition at 20 µM is 25 to 50%

What the record says about O=C(NCCc1cccnc1)c1cc2nc(-c3ccccn3)nc(O)c2s1 [drawing 2843] : inhibition at 20 µM is 51 to 75%

What the record says about Oc1nc(-c2ccccn2)nc2c(-c3ccc(OC(F)F)cc3F)csc12 [drawing 2876] : inhibition at 20 µM is 51 to 75%

What the record says about COc1ccc(CCNC(=O)c2csc3nc(-c4ccccn4)nc(N4CCOCC4)c23)cn1 [drawing 2745] : inhibition at 20 µM is 25 to 50%

What the record says about COc1cccc(CC2CN(C(=O)c3csc4c(O)nc(-c5ccccn5)nc34)CCN2)c1 (stereo not drawn) [drawing 2830] : inhibition at 20 µM is 51 to 75%

What the record says about Cc1sc2c(O)nc(-c3ccccn3)nc2c1-c1ccccc1 [drawing 2905] : inhibition at 20 µM is 25 to 50%

What the record says about CC(C)(C(=O)Nc1ccnc(-c2ccccn2)n1)c1ccc(C#N)cc1 [drawing 2751] : inhibition at 20 µM is 51 to 75%

What the record says about Nc1nc(-c2ccccn2)nc2c(-c3ccccc3)csc12 [drawing 2859] : inhibition at 20 µM is 51 to 75%

What the record says about COc1ncc(CCNC(=O)c2csc3nc(-c4ccccn4)nc(N4CCOCC4)c23)cn1 [drawing 2748] : inhibition at 20 µM is 25 to 50%

What the record says about Oc1nc(-c2ccccn2)nc2sc3c(c12)CCNC3 [drawing 2851] : inhibition at 20 µM is 51 to 75%

What the record says about Cc1cc(OC(F)F)ccc1-c1csc2c(O)nc(-c3ccccn3)nc12 [drawing 2878] : inhibition at 20 µM is 25 to 50%

What the record says about CNC(=O)c1ccc(-c2csc3c(O)nc(-c4ccccn4)nc23)cc1C [drawing 2885] : inhibition at 20 µM is 25 to 50%

What the record says about O=C(COCc1ccncc1)Nc1nc(-c2ccccn2)nc2sccc12 [drawing 2828] : inhibition at 20 µM is 51 to 75%

What the record says about COc1ccccc1C1CN(C(=O)c2csc3c(O)nc(-c4ccccn4)nc23)CCO1 (stereo not drawn) [drawing 2767] : inhibition at 20 µM is 51 to 75%

What the record says about O=C(NCCc1nnn[nH]1)c1csc2nc(-c3ccccn3)nc(N3CCOCC3)c12 [drawing 2786] : inhibition at 20 µM is 25 to 50%

What the record says about Oc1nc(-c2ccccn2)nc2c(-c3cc(F)ccc3OC(F)F)csc12 [drawing 2860] : inhibition at 20 µM is 25 to 50%

What the record says about O=C(CCc1cncnc1)Nc1nc(-c2ccccn2)nc2sccc12 [drawing 2891] : inhibition at 20 µM is 76 to 100%

What the record says about Cc1cnccc1-c1csc2c(O)nc(-c3ccccn3)nc12 [drawing 2888] : inhibition at 20 µM is 51 to 75%

What the record says about O=C(c1csc2c(O)nc(-c3ccccn3)nc12)N1CCOC(CN2CCOCC2)C1 (stereo not drawn) [drawing 2805] : inhibition at 20 µM is 25 to 50%

What the record says about O=C(c1csc2c(O)nc(-c3ccccn3)nc12)N1CC2CC1CN2c1ccccc1 (stereo not drawn) [drawing 2838] : inhibition at 20 µM is 76 to 100%

What the record says about O=C(c1csc2c(O)nc(-c3ccccn3)nc12)N1CCC(c2cccc(O)c2)C1 (stereo not drawn) [drawing 2840] : inhibition at 20 µM is 76 to 100%

---

# measured target: K-Ras (Q61H/G12D) (Homo sapiens (Human), UniProt P01116, G12D/Q61H)
# Sequence (P01116-2 other isoform, or with tags, fused parts or gaps G12D/Q61H): as the sequence (P01116-2 other isoform, or with tags, fused parts or gaps G12D/Q61H) above
# test protocol: MicroScale Thermophoresis (MST), GTP affinity for binding domain
assay endpoint: Kd (µM)
Number only, in µM; omit the unit.

What the record says about Nc1nc2c(ncn2[C@@H]2O[C@H](COP(=O)(O)OP(=O)(O)OP(=O)(O)O)[C@@H](O)[C@H]2O)c(=O)[nH]1 [GTP] : Kd is 0.268

---

# measured target: KRas G12C mutant (Homo sapiens (Human), UniProt P01116, G12C)
# Sequence (P01116-2 other isoform, or with tags, fused parts or gaps G12C): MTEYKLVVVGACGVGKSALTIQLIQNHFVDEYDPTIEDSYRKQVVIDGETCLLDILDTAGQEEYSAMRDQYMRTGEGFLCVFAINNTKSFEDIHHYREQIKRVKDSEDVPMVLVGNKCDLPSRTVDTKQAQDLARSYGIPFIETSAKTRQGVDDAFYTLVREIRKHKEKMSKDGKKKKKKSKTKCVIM
# test protocol: Ras GTP binding domain inhibition assay (labeled GTP)
# condition description: 20 μM compound; read-out: % Inhibition at 20 μM KRas G12C
# Description: Buffer-I: • 50 mM Tris, pH 7.5 • 150 mM NaCl (optional) • 1 mM MgCl2 • 1 mM DTT. • KRas G12D mutant protein was expressed as a His-tagged protein. […] Then 22 μl of Cy3-GTP or Cy5-GTP was added to each well. The labeled GTP was incubated for 45 min. at room temperature. • Following GTP incubation, wells were washed 3× in Buffer-I, and 200 μl of Buffer-I were added to each well. • Following washes, the amount of bound labeled-GTP was measured with an Eppendorf AF2200 plate reader. […]
assay endpoint: inhibition at 20 µM

Kindly note: KRas G12C mutant (Homo sapiens (Human), UniProt P01116, G12C), O=C(CCc1nn[nH]n1)Nc1nc(-c2ccccn2)nc2sccc12 [drawing 2890] , inhibition at 20 µM value reported: 25 to 50%

Kindly note: KRas G12C mutant (Homo sapiens (Human), UniProt P01116, G12C), O=C(c1ccccn1)N1CCCc2c(O)nc(-c3ccccn3)nc21 [drawing 2655] , inhibition at 20 µM value reported: 25 to 50%

Kindly note: KRas G12C mutant (Homo sapiens (Human), UniProt P01116, G12C), Oc1nc(-c2ccccn2)nc2c1ncn2-c1ccccc1 [drawing 2697] , inhibition at 20 µM value reported: 25 to 50%

Kindly note: KRas G12C mutant (Homo sapiens (Human), UniProt P01116, G12C), CC(C)(O)c1ccc(-c2csc3c(O)nc(-c4ccccn4)nc23)c(F)c1 [drawing 2880] , inhibition at 20 µM value reported: 51 to 75%

Kindly note: KRas G12C mutant (Homo sapiens (Human), UniProt P01116, G12C), N#Cc1ccc(COCC(=O)Nc2nc(-c3ccccn3)nc3sccc23)cc1 [drawing 2799] , inhibition at 20 µM value reported: 25 to 50%

Kindly note: KRas G12C mutant (Homo sapiens (Human), UniProt P01116, G12C), `COc1ccc(CCNC(=O)c2csc3nc(-c4ccccn4)nc(N4CCN(C)CC4)c23)cn1` , inhibition at 20 µM value reported: 25 to 50%

Kindly note: KRas G12C mutant (Homo sapiens (Human), UniProt P01116, G12C), Oc1nc(-c2ccccn2)nc2c(-c3ccccc3C(F)F)csc12 [drawing 2883] , inhibition at 20 µM value reported: 25 to 50%

Kindly note: KRas G12C mutant (Homo sapiens (Human), UniProt P01116, G12C), COc1cccc(C2CN(C(=O)c3csc4c(O)nc(-c5ccccn5)nc34)CCN2)c1 (stereo not shown) [drawing 2773] , inhibition at 20 µM value reported: 25 to 50%

Kindly note: KRas G12C mutant (Homo sapiens (Human), UniProt P01116, G12C), c1ccc(-c2nc(NCC3CCCO3)c3ccsc3n2)nc1 (stereo not shown) [drawing 2705] , inhibition at 20 µM value reported: 51 to 75%

Kindly note: KRas G12C mutant (Homo sapiens (Human), UniProt P01116, G12C), COc1cccc(-c2csc3c(O)nc(-c4ccccn4)nc23)c1 [drawing 2872] , inhibition at 20 µM value reported: 25 to 50%

Kindly note: KRas G12C mutant (Homo sapiens (Human), UniProt P01116, G12C), O=C(c1csc2c(O)nc(-c3ccccn3)nc12)N1CCOC(c2ccc(F)cc2)C1 (stereo not shown) [drawing 2743] , inhibition at 20 µM value reported: 51 to 75%

Kindly note: KRas G12C mutant (Homo sapiens (Human), UniProt P01116, G12C), COCCCCNC(=O)c1csc2nc(-c3ccccn3)nc(N3CCN(C)CC3)c12 [drawing 2739] , inhibition at 20 µM value reported: 25 to 50%

Kindly note: KRas G12C mutant (Homo sapiens (Human), UniProt P01116, G12C), Oc1nc(-c2ccccn2)nc2c(-c3ccccc3Cl)csc12 [drawing 2695] , inhibition at 20 µM value reported: 25 to 50%

Kindly note: KRas G12C mutant (Homo sapiens (Human), UniProt P01116, G12C), COc1ccnc(-c2nc(O)c3ccsc3n2)c1 [drawing 2708] , inhibition at 20 µM value reported: 51 to 75%

Kindly note: KRas G12C mutant (Homo sapiens (Human), UniProt P01116, G12C), COc1ccnc(-c2nc(O)c3c(Cl)csc3n2)c1 [drawing 2800] , inhibition at 20 µM value reported: 25 to 50%

Kindly note: KRas G12C mutant (Homo sapiens (Human), UniProt P01116, G12C), Oc1nc(-c2ccccn2)nc2c(-c3ccc4c(c3)CCCO4)csc12 [drawing 2902] , inhibition at 20 µM value reported: 25 to 50%

Kindly note: KRas G12C mutant (Homo sapiens (Human), UniProt P01116, G12C), O=C(c1csc2c(O)nc(-c3ccccn3)nc12)N1CCOC(c2ccccc2F)C1 (stereo not shown) , inhibition at 20 µM value reported: 25 to 50%

Kindly note: KRas G12C mutant (Homo sapiens (Human), UniProt P01116, G12C), Oc1nc(-c2ccccn2)nc2c(-c3cc(F)ccc3OC(F)F)csc12 [drawing 2860] , inhibition at 20 µM value reported: 25 to 50%

Kindly note: KRas G12C mutant (Homo sapiens (Human), UniProt P01116, G12C), COc1ccc(-c2csc3c(O)nc(-c4ccccn4)nc23)c(C)c1 [drawing 2881] , inhibition at 20 µM value reported: 51 to 75%

The origin of these recorded values is patent US10940139B2.
